# TEST NAME: Non-human primate CSF pharmacokinetics (Study B), cisterna magna versus lumbar sampling
# Format: in vivo, Macaca fascicularis
# COND: female, Cynomolgus macaque, cynomolgus monkey, CSF (cisterna magna) / unbound plasma; 3 hours, IV bolus 0.15 mg/kg, cisterna magna sampling; read-out: geomean ratio of CSF concentration to unbound concentration in plasma (Kp,uu)
OBSERVABLE: Kp uu at 3 h

Entry Cc1cc(F)c(Cc2nc(-c3ncc(F)c(O)n3)cn3ccnc23)cc1F ; Kp uu at 3 h = 2 to 3

* * *

# TEST NAME: Non-human primate CSF pharmacokinetics (Study B), cisterna magna versus lumbar sampling
# Assay type: in vivo, Macaca fascicularis
# COND: female, Cynomolgus macaque, cynomolgus monkey, CSF (lumbar) / unbound plasma; 3 hours, oral gavage 0.5 mg/kg, lumbar sampling; read-out: geomean ratio of CSF concentration to unbound concentration in plasma (Kp,uu)
OBSERVABLE: Kp uu at 3 h

Entry Cc1cc(F)c(Cc2nc(-c3ncc(F)c(O)n3)cn3ccnc23)cc1F ; Kp uu at 3 h = 2 to 3

* * *

# TEST NAME: Non-human primate CSF pharmacokinetics (Study B), cisterna magna versus lumbar sampling
# Format: in vivo, Macaca fascicularis
# COND: female, Cynomolgus macaque, cynomolgus monkey, CSF (lumbar) / unbound plasma; 24 hours, IV bolus 0.15 mg/kg, lumbar sampling; read-out: geomean ratio of CSF concentration to unbound concentration in plasma (Kp,uu)
OBSERVABLE: Kp uu at 24 h

Entry Cc1cc(F)c(Cc2nc(-c3ncc(F)c(O)n3)cn3ccnc23)cc1F [Compound I-14] ; Kp uu at 24 h = 1 to 2

* * *

# Tested on: sGC enzyme
# TEST NAME: cGMP GloSensor cell-based assay, 384-well format
# Design: species or system human
# COND: HEK293 GloSensor 40F cGMP cells, 10 μM DETA-NONOate; geometrical mean; I-20 and I-14: average of free acid and sodium salt; read-out: Glo EC50
OBSERVABLE: EC50

Lab entry: sGC enzyme assay, molecule Cc1cc(F)c(Cc2nc(-c3ncc(F)c(O)n3)cn3ccnc23)cc1F , EC50 = ≤ 100 nM

* * *

# TEST NAME: Non-human primate CSF pharmacokinetics (Study B), cisterna magna versus lumbar sampling
# Type: in vivo, Macaca fascicularis
# COND: female, Cynomolgus macaque, cynomolgus monkey, CSF (lumbar) / unbound plasma; 24 hours, oral gavage 0.5 mg/kg, lumbar sampling; read-out: geomean ratio of CSF concentration to unbound concentration in plasma (Kp,uu)
OBSERVABLE: Kp uu at 24 h

Entry Cc1cc(F)c(Cc2nc(-c3ncc(F)c(O)n3)cn3ccnc23)cc1F ; Kp uu at 24 h = 2 to 3

* * *

# TEST NAME: Non-human primate CSF pharmacokinetics (Study B), cisterna magna versus lumbar sampling
# Format: in vivo, Macaca fascicularis
# COND: female, Cynomolgus macaque, cynomolgus monkey, CSF (cisterna magna) / unbound plasma; 24 hours, oral gavage 0.5 mg/kg, cisterna magna sampling; read-out: geomean ratio of CSF concentration to unbound concentration in plasma (Kp,uu)
OBSERVABLE: Kp uu at 24 h

Entry Cc1cc(F)c(Cc2nc(-c3ncc(F)c(O)n3)cn3ccnc23)cc1F ; Kp uu at 24 h = 2 to 3
